test: Cytotoxicity on uninfected MT-4 cells, MTT method; assay type: cell-based; settings: human, five days
PROPERTY NAME: CC50 at 5 days

Note to self: CC50 at 5 days recorded for CN1C(=O)[C@@H](c2cc(Cl)c(O)c(Cl)c2)NC(=O)[C@@H]2NC(=O)[C@@H](c3cc(Cl)c(O)c(Cl)c3)NC(=O)[C@H](NC(=O)C(=O)c3cc(Cl)c(O)c(Cl)c3)Cc3c[nH]c4c(cccc34)-c3cc2cc(c3O)Oc2ccc(cc2)C[C@H]1C(=O)N[C@@H](C(=O)O)c1ccc(O)cc1 [Chloropeptine, chloropeptin, reference compound] was > 600 µM

Cited source: patent US6482412B1
